Molecular target: human NHE3 (Homo sapiens, UniProt P48764)
Sequence (P48764 26-834): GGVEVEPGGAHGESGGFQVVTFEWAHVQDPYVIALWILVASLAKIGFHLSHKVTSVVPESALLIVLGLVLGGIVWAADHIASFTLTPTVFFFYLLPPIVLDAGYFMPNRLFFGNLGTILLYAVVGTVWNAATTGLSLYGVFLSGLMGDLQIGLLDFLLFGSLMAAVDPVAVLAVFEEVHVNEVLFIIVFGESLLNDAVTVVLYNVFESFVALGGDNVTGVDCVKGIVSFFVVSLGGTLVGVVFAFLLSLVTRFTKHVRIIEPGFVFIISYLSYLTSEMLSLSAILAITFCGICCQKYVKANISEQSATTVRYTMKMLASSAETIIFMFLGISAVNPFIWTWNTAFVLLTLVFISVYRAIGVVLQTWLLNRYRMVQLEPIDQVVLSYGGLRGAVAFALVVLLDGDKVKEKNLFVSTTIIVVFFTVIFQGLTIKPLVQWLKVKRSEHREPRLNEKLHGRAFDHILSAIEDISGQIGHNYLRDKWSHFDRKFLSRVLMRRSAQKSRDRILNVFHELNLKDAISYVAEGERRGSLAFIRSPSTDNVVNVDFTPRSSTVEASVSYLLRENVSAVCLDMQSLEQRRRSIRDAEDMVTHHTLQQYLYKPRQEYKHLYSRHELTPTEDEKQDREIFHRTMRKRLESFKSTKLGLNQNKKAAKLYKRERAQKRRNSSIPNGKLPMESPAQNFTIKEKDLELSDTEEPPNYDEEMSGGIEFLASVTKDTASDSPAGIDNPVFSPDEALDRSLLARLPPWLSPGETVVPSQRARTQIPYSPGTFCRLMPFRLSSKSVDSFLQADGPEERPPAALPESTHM
Assay: Cell-based assay of NHE-3 activity (human NHE3 inhibition assay)
Parameters: expressed in transfected cells; host or cells: Opossum kidney (OK) cells (ATCC), electroporated
Conditions: OK cells with human NHE-3 gene, BCECF pH recovery, 0-30 μM test compound; read-out: Human NHE3 pIC50 (converted)
Reported IC50 values for the following compounds.

* O=C(NCCCCNC(=O)NCCOCCOCCNS(=O)(=O)c1ccc(O[C@H]2c3cc(Cl)cc(Cl)c3C[C@@H]2N2CCCCC2)cc1)NCCOCCOCCNS(=O)(=O)c1ccc(O[C@H]2c3cc(Cl)cc(Cl)c3C[C@@H]2N2CCCCC2)cc1 | > 10 µM

Task item: Need IC50 of O=C(NCCCCNC(=O)NCCOCCOCCNS(=O)(=O)c1ccc(O[C@H]2c3cc(Cl)cc(F)c3C[C@@H]2N2CCCCC2)cc1)NCCOCCOCCNS(=O)(=O)c1ccc(O[C@H]2c3cc(Cl)cc(F)c3C[C@@H]2N2CCCCC2)cc1 , thanks.
Reply: < 0.1 µM
